The reported measurements were obtained from ChEMBL document CHEMBL4304771.

assay: Tmax in ICR mouse at 50 mg/kg, po administered as single dose measured for 24 hrs by HPLC analysis; type: ADME, organism-based; conditions: in vivo
A collection of compounds and their measured Tmax
measuredProperty: Tmax (min)

- CCc1nc2ccc(Cl)cn2c1C(=O)NCCOc1ccc(N(C)C)cc1: 15
- CCc1nc2ccc(Br)cn2c1C(=O)NCCOc1ccc(N2CCC(C(F)(F)F)CC2)cc1: 45
- CCc1nc2ccc(Cl)cn2c1C(=O)NCCOc1ccc(N2CCN(c3ccc(F)cc3)CC2)cc1: 80
- COc1ccc2nc(C)c(C(=O)NCCOc3ccc(N4CCC(C(F)(F)F)CC4)cc3)n2c1: 19.8
- CCc1nc2ccc(Br)cn2c1C(=O)NCCOc1ccc(N2CCCCC2)cc1: 15
